Molecular target: T1, Recombinant human MASP1 enzyme (fragment corresponding to amino acids 297-699, C-terminal His Tag) (human, UniProt P48740 297-699)
T1 sequence: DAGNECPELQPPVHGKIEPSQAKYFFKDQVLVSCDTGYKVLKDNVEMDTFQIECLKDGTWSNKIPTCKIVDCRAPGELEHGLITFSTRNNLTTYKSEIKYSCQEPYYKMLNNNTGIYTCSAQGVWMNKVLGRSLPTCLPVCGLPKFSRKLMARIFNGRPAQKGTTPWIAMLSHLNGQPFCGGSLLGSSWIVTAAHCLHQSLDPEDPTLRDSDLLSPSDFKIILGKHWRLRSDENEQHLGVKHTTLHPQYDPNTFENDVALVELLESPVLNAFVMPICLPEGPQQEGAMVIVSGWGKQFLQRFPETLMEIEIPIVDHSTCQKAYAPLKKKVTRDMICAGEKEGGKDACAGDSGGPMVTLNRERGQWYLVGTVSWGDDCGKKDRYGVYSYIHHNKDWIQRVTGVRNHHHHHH
Experiment: cell-based or functional assay
Bridge positions count the residues as written; N and C are the ends. Square brackets hold non-standard residues; d marks the D form. Ends that are not written are not given here. * marks the point of attachment. Oic = O=C(O)[C@@H]1C[C@@H]2CCCC[C@@H]2N1; Cyclobutylacetic = O=C(CC1CCC1)*; tBuAla = CC(C)(C)C[C@H](N)C(=O)O; Pen = CC(C)(S)[C@H](N)C(=O)O; Sar = CNCC(=O)O
Measured human MASP1 IC50 values are reported for all entries that follow.
Give the number; µM is assumed, so skip it.

binder	human MASP1 IC50 / µM
[Sar]ICSRSLP[Oic]I[Pen]IPQ-NH2 (disulfide 3-11; N-terminus assumed; SMILES CC[C@H](C)[C@H](NC(=O)CNC)C(=O)N[C@H]1CSSC(C)(C)[C@@H](C(=O)N[C@H](C(=O)N2CCC[C@H]2C(=O)N[C@@H](CCC(N)=O)C(N)=O)[C@@H](C)CC)NC(=O)[C@H]([C@@H](C)CC)NC(=O)[C@@H]2C[C@@H]3CCCC[C@@H]3N2C(=O)[C@@H]2CCCN2C(=O)[C@H](CC(C)C)NC(=O)[C@H](CO)NC(=O)[C@H](CCCNC(=N)N)NC(=O)[C@H](CO)NC1=O) [((N-Me)G)-IC+SRSLP-(Oic)-I-(Pen)+IPQ-NH2]	0.0052

Attention now shifts to the item below.
Give the measured human MASP1 IC50 for Cyclobutylacetic-ICSRS[tBuAla]PPI[Pen]IP-NH2 (disulfide 2-10; SMILES CC[C@H](C)[C@H](NC(=O)CC1CCC1)C(=O)N[C@H]1CSSC(C)(C)[C@@H](C(=O)N[C@H](C(=O)N2CCC[C@H]2C(N)=O)[C@@H](C)CC)NC(=O)[C@H]([C@@H](C)CC)NC(=O)[C@@H]2CCCN2C(=O)[C@@H]2CCCN2C(=O)[C@H](CC(C)(C)C)NC(=O)[C@H](CO)NC(=O)[C@H](CCCNC(=N)N)NC(=O)[C@H](CO)NC1=O) [(Cyclobutylacetic)-IC+SRS-((tBu)A)-PPI-(Pen)+IP-NH2]
0.015
